Ref: patent US9340577B2

Molecular target: A*3002 (Homo sapiens, UniProt P04439, D101N/D140H/D185E/E176R/F33S/G80R/H175R/K168Q/Q94H/R138E/R41S/V100E)
Sequence (P04439 whole entry, looked up, the tested form may be a part, stated change not applied): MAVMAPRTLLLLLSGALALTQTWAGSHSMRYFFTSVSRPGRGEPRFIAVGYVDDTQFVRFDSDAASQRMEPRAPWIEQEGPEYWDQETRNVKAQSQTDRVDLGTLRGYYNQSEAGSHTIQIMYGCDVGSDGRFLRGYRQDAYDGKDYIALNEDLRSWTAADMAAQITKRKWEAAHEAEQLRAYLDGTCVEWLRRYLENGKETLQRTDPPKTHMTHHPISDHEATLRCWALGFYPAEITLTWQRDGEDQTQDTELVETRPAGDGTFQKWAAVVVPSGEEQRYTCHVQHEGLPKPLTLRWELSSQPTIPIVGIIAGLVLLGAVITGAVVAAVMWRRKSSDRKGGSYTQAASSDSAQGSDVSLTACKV
Assay: biochemical
Assay type: binding
No end group written: not given here.
Below, each of the sequences is paired with its reported IC50 value.
Please state the figure in nM; there is no need to write the unit.

These recorded examples may help you get a feel for the data.
GTDPACYEF [Peptide 9012.0135]
9840
TMDYPLWSQSY [Peptide 9012.0196]
99

LTQENYLEY [Peptide 9012.0133] yielded IC50 of 23

YTMAGVGSPY [Peptide 9012.0153] yielded IC50 of 3.5

PTDDPSPLQRY [Peptide 9012.0186] yielded IC50 of 440

DMDDLVDAEEY [Peptide 9012.0184] yielded IC50 of 18000

* * *

Below, each of the sequences is paired with its reported A2.1 value.
Target: HLA-A*0201 (HLA-A2.1) (Homo sapiens, UniProt P04439, D140Y/D185E/D98H/E176V/E277Q/G131W/G231S/I119V/I121R/I166T/I218V/L300P/L318F/N151K/N90K/P208A/P217A/Q86G/Q94H/R138H/R169H/T345S)
Experiment: biochemical
Assay type: binding

These recorded examples may help you get a feel for the data.
PQSPQGASA
<0.0002
FPTTINFTR
<0.0002
VPTAGSTDP
<0.0002

GVQGPSLKPA yielded A2.1 of 0.0001

HAPEEEIWE yielded A2.1 of <0.0002

GLSYDGLL yielded A2.1 of 0.0001

* * *

Below, each of the sequences is paired with its reported pIC50 value.
Molecular target: DRB1*1201 (Homo sapiens, UniProt P01903+P01911, A100R/A169T/D57E/D86V/F55L/H45Y/K41T/L162R/M171V/P40S/Q125H/Q178H/Q39Y/Q99D/R42G/S66L/T262R/V114A/V67L/W38E/Y59H/Y61H/Y89S)
Experiment: biochemical
Format: binding
No end group written: not given here.
When answering, recall that pIC50 equals minus log10 of the concentration in mol/L, and write that number alone.

RLTVAKLMSNLLSIP [Peptide 89.0065]
6.97

HPLYNMSLLKHQSLR [Peptide 68.0008] yielded pIC50 of 7.02

CTLVAGEVDYVGLYY [Peptide 90.0252] yielded pIC50 of 5.44

VEFMSFLTALKRFLQ [Peptide 89.0015] yielded pIC50 of 7.04

DPRWPYLHSRLVVFH [Peptide 89.0113] yielded pIC50 of 5.23

PHAFPFDKNGNPVYE [Peptide 90.0106] yielded pIC50 of 6.17

HPQWVLTAAHCLKKN [Peptide 68.0003] yielded pIC50 of 4.94

LKVLIQPYSIYAHLQ [Peptide 89.0098] yielded pIC50 of 6.63

MNYVVWDSIYYITET [Peptide 90.0214] yielded pIC50 of 5.94

IYIIEEDTCTMVTGK [Peptide 90.0204] yielded pIC50 of 4.78

FKYFKEDAAKYSKTQ [Peptide 90.0206] yielded pIC50 of 6.40

* * *

Below, each of the sequences is paired with its reported pIC50 value.
Target: HLA-A3.2 (A*0301) (Homo sapiens)
Test: biochemical
Format: binding
No end group written: not given here.
When answering, recall that pIC50 equals minus log10 of the concentration in mol/L, and write that number alone.

These recorded examples may help you get a feel for the data.
KLFLQGTPK [Peptide 88.0381]
7.82
QQRSLTEILK [Peptide 9012.0218]
6.28
TQQLQDLFK [Peptide 88.0374]
5.77

HLFDYSWYK [Peptide 76.0165] yielded pIC50 of 8.39

KTLLQQYCLY [Peptide 88.0130] yielded pIC50 of 6.69

SSIVGWPAVR [Peptide 9017.0185] yielded pIC50 of 5.50

QQLLFIHFR [Peptide 9017.0111] yielded pIC50 of 5.75

GVRRATTSTK [Peptide 88.0210] yielded pIC50 of 8.21

ISWLGLRSLK [Peptide 9012.0234] yielded pIC50 of 7.51

TLWNPPTTAK [Peptide 1556.04] yielded pIC50 of 7.66

WLSEPQKCFK [Peptide 88.0236] yielded pIC50 of 5.77

NSNASAFLK [Peptide 1587.07] yielded pIC50 of 6.37

HLFRYSWYK [Peptide 76.0171] yielded pIC50 of 7.68

MQYVAWKYIY [Peptide 88.0233] yielded pIC50 of 5.72

RVLQGLPREK [Peptide 9012.0238] yielded pIC50 of 7.42

NTNAGTDPR [Peptide 88.0372] yielded pIC50 of 5.95

QVLHLLKRK [Peptide 88.0365] yielded pIC50 of 5.81

STWHWTSDNK [Peptide 1589.22] yielded pIC50 of 6.79

VLCGPPNTGK [Peptide 88.0189] yielded pIC50 of 6.85

MVVLLLVRYK [Peptide 1587.04] yielded pIC50 of 5.58

KSCFAMSLIK [Peptide 88.0190] yielded pIC50 of 7.24

ETQRQQFLK [Peptide 1589.32] yielded pIC50 of 5.99

STWHWTSDDK [Peptide 1589.43] yielded pIC50 of 6.47

EFTAFLVAFK [Peptide 88.0193] yielded pIC50 of 5.13

VTIKIGGQIK [Peptide 1516.02] yielded pIC50 of 5.95

* * *

Biological target: A*0203 (Homo sapiens, UniProt P04439, A173T/D140Y/D185E/D98H/E277Q/G131W/G231S/I119V/I121R/I166T/I218V/L180W/L300P/L318F/N151K/N90K/P208A/P217A/Q86G/Q94H/R138H/R169H/T345S)
Assay: biochemical
Format: binding
No end group written: not given here.
Rule: measured IC50 below 1 µM gets class 1; anything equal to or greater than 1 µM gets class 0.

Below, 8 sequences whose answers are already recorded.
TLGIMIGVLV [Peptide 9013.0251]
class 1
RILQQLLFT [Peptide 1525.13]
class 0
TLELFIPNITV [Peptide 9013.0299]
class 0
NVAEGKEVV [Peptide 9013.0015]
class 0
ALYWYRTGL [Peptide 1578.30]
class 1
TQELFIPNV [Peptide 9013.0059]
class 0
NVAEGKEVLV [Peptide 9013.0133]
class 0
NLLYGPDDPTI [Peptide 9013.0310]
class 0

Task item: Find out if reported IC50 for LLFWNPPTT [Peptide 9013.0007] is less than 1 µM
Reply: class 1

Task item: Find out if reported IC50 for YVCGIQNSVSV [Peptide 9013.0337] is less than 1 µM
Reply: class 1

* * *

Target: DRB1*1101 (Homo sapiens, UniProt P01903+P01911, A100R/A169T/A87E/I96F/K41T/L162R/M171V/P40S/Q125H/Q178H/Q39Y/Q99D/R42S/S66Y/T262R/V115G/W38E)
Sequence (P01903 26-254 limits assumed, other chains not shown): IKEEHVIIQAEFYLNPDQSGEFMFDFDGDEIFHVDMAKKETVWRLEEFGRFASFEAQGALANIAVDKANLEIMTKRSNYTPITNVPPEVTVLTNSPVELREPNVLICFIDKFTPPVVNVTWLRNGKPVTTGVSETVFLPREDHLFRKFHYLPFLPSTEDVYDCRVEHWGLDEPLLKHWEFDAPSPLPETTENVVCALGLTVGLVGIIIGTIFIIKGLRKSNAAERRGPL
Assay: biochemical
Details: Binding affinity DRB1 *1101
pIC50: −log10 of the molar value. No end group written: not given here.
Assay metric: pIC50

VHEGIRTYFVQFKDD [Peptide 1601.05]
< 4.70
VTAIFGVNPTIAEGF [Peptide 89.0023]
< 4.70
GVNHQHLPARRAEPQ [Peptide 1543.05]
< 4.70

GERLEVDTELSPRLQ [Peptide 90.0048] yielded pIC50 of < 4.70

VDFIVNDNDYLTQAE [Peptide 90.0031] yielded pIC50 of < 4.70

MVQVEEQQTTLSCNG [Peptide 89.0040] yielded pIC50 of < 4.70

SNEVSSPEIIRQHLA [Peptide 1601.06] yielded pIC50 of < 4.70

* * *

Below, each of the sequences is paired with its reported pIC50 value.
Biological target: A*0202 (Homo sapiens, UniProt P04439, D140Y/D185E/D98H/E176V/E277Q/G131W/G231S/I119L/I121R/I166T/I218V/L180W/L300P/L318F/N151K/N90K/P208A/P217A/Q67R/Q86G/Q94H/R138H/R169H/T345S)
Assay: biochemical
Format: binding
No end group written: not given here.
When answering, recall that pIC50 equals minus log10 of the concentration in mol/L, and write that number alone.

ILNTTYLWWV [Peptide 9013.0195]
6.92
TLELFISNI [Peptide 9013.0082]
6.77
ALYWFRTAM [Peptide 86.0195]
7.77

# next sequence below
TLQDVSLEV [Peptide 1578.45] yielded pIC50 of 7.74

* * *

Below, each of the sequences is paired with its reported IC50 value.
Target: HLA-A3.2 (A*0301) (Homo sapiens)
Experiment: biochemical
Assay type: binding
No end group written: not given here.

These recorded examples may help you get a feel for the data.
KIDRLIDRIR [Peptide 9017.0249]
> 20 µM
DSNAQAFLK [Peptide 88.0379]
> 20 µM

# next sequence below
WTYFDTYMR [Peptide 88.0346] yielded IC50 of > 20 µM
